Ref: ChEMBL document CHEMBL1201862

Tested on: NCI-H460
Assay Notes: NCI tumour cell line growth inhibition, 48 h
Active and inactive are the calls of the source. Cut-off read from the data, not from the text of the source: active = GI50 up to about 1.1 µM and inactive = higher.
Parameter: GI50

[
  {
    "Compound": "CCOC(=O)[N-]c1ccc(S(=O)(=O)[O+](C)CCl)cc1.CCOC(=O)[N-]c1ccc(S(=O)(=O)[O+](C)CCl)cc1.NC(=O)N=O.NC(=O)OCCCl",
    "Test Target": "NCI-H460",
    "Reading": "> 100 µM (inactive)"
  }
]

Problem: Sample CC1(C)C2CC3C4CC5(Nc6ccccc6C5N41)[C@]3(C)CC2=O (stereo partly drawn) — what was its GI50?
Result: > 50 µM (inactive)

Problem: GET /values?readout=GI50&item= `CN(C)c1ccc(C(c2ccc(Cl)cc2)c2ccc(N(C)C)cc2)cc1`
Result: > 100 µM (inactive)
